assay details: pKa2 was determined
Format: physicochemical
condition summary: read-out: pKa2
recorded endpoint: pKa
API doc: respond with a numeric literal and nothing else, no unit.

Would you mind telling me what pKa value was observed for CCN(CC)CCNC(=O)c1ccc(NS(C)(=O)=O)cc1.Cl [SEMATILIDE HYDROCHLORIDE] ? 9.51
